Item-by-item account of host-toxicity (survival of uninfected host cells)
Test system: uninfected human foreskin fibroblasts
Test: Host toxicity, MTT assay on uninfected host cells
Conditions: infection: None, 5 μM compound
Use % as the unit, but write only the number.

[
  {
    "COMPOUND": "OCC1CC(n2cnc3c(SCc4c(F)cccc4Cl)ncnc32)C(O)C1O (centres unmarked) [Compound 20]",
    "UNIT ABBREVIATION": "%",
    "READOUT NUMBER": 100
  }
]

Q. Requested read-out: host-toxicity (survival of uninfected host cells). Entry: Cc1cccc(CSc2ncnc3c2ncn3C2CC(CO)C(O)C2O)c1 (centres unmarked) [Compound 5]
A. 100

Q. Next entry: CCc1nc(N)nc(N)c1-c1ccc(Cl)cc1 [Compound 24, Pyrimethamine, reference compound]
A. 101

Q. Next entry: OCC1CC(n2cnc3c(SCc4ccccc4F)ncnc32)C(O)C1O (centres unmarked) [Compound 2]
A. 100

Q. Next entry: OCC1CC(n2cnc3c(SCc4ccc(Cl)cc4)ncnc32)C(O)C1O (centres unmarked) [Compound 9]
A. 100

Q. Next entry: COc1ccc(CSc2ncnc3c2ncn3C2CC(CO)C(O)C2O)cc1 (centres unmarked) [Compound 15]
A. 100

----------
System: wild type (RH) strain of T. gondii
Assay: Anti-toxoplasmic activity in tissue culture
Type: cell-based, Toxoplasma gondii
Conditions: wild type (RH) in human fibroblasts, 5 μM compound
Just a reminder that ties go to 0.0: only percent survival of parasite strictly below 80% counts as 1.0.

[
  {
    "COMPOUND": "O=[N+]([O-])c1cccc(CSc2ncnc3c2ncn3C2CC(CO)C(O)C2O)c1 (centres unmarked)",
    "ANSWER LABEL": 0.0
  },
  {
    "COMPOUND": "OCC1CC(n2cnc3c(SCc4ccc(Cl)cc4)ncnc32)C(O)C1O (centres unmarked)",
    "ANSWER LABEL": 1.0
  },
  {
    "COMPOUND": "Cc1cccc(CSc2ncnc3c2ncn3C2CC(CO)C(O)C2O)c1 (centres unmarked)",
    "ANSWER LABEL": 0.0
  }
]

Q. Take the compound OCC1CC(n2cnc3c(SCc4ccc(Cl)c(Cl)c4)ncnc32)C(O)C1O (centres unmarked) and say whether its percent survival of parasite is less than 80%.
A. 1.0

Q. Next entry: OCC1CC(n2cnc3c(SCc4ccc(F)cc4)ncnc32)C(O)C1O (centres unmarked)
A. 0.0

Q. Next entry: Cc1ccc(CSc2ncnc3c2ncn3C2CC(CO)C(O)C2O)c(C)c1C (centres unmarked)
A. 1.0

Q. Next entry: O=[N+]([O-])c1ccc(CSc2ncnc3c2ncn3C2CC(CO)C(O)C2O)cc1 (centres unmarked)
A. 0.0

Q. Next entry: OCC1CC(n2cnc3c(SCc4ccc(Cl)cc4Cl)ncnc32)C(O)C1O (centres unmarked)
A. 0.0

----------
Tested on: uninfected human foreskin fibroblasts
Test: Host toxicity, MTT assay on uninfected host cells
Settings: infection: None, 50 μM compound
PROPERTY MEASURED: host-toxicity (survival of uninfected host cells) (%)
Use % as the unit, but write only the number.

[
  {
    "MOLECULE": "OCC1CC(n2cnc3c(SCc4ccccc4Cl)ncnc32)C(O)C1O (stereo not shown) [Compound 3]",
    "UNIT ABBREVIATION": "%",
    "READOUT NUMBER": 100
  }
]

Q. Requested read-out: host-toxicity (survival of uninfected host cells). Entry: O=[N+]([O-])c1cccc(CSc2ncnc3c2ncn3C2CC(CO)C(O)C2O)c1 (stereo not shown) [Compound 7, Carbocyclic 6-(m-nitrobenzylthio)inosine]
A. 100

Q. Next entry: Cc1ccc(CSc2ncnc3c2ncn3C2CC(CO)C(O)C2O)cc1 (stereo not shown) [Compound 11]
A. 100

Q. Next entry: OCC1CC(n2cnc3c(SCc4ccc(OC(F)(F)F)cc4)ncnc32)C(O)C1O (stereo not shown) [Compound 16]
A. 89.3

Q. Next entry: OCC1CC(n2cnc3c(SCc4ccc(Br)cc4)ncnc32)C(O)C1O (stereo not shown) [Compound 10, Carbocyclic 6-(p-bromobenzylthio)inosine]
A. 100

Q. Next entry: OCC1CC(n2cnc3c(SCc4c(F)cccc4Cl)ncnc32)C(O)C1O (stereo not shown) [Compound 20]
A. 100

Q. Next entry: CS(=O)(=O)c1ccc(CSc2ncnc3c2ncn3C2CC(CO)C(O)C2O)cc1 (stereo not shown) [Compound 17]
A. 100

Q. Next entry: OCC1CC(n2cnc3c(SCc4ccc(Cl)c(Cl)c4)ncnc32)C(O)C1O (stereo not shown) [Compound 19]
A. 73.1

Q. Next entry: Cc1cccc(CSc2ncnc3c2ncn3C2CC(CO)C(O)C2O)c1 (stereo not shown) [Compound 5]
A. 96.1

Q. Next entry: Nc1ccc(S(=O)(=O)Nc2ncccn2)cc1 [Compound 23, Sulfadiazine, reference compound]
A. 102

Q. Next entry: N#Cc1ccc(CSc2ncnc3c2ncn3C2CC(CO)C(O)C2O)cc1 (stereo not shown) [Compound 13, Carbocyclic 6-(p-cyanobenzylthio)inosine]
A. 100

Q. Next entry: COc1ccc(CSc2ncnc3c2ncn3C2CC(CO)C(O)C2O)cc1 (stereo not shown) [Compound 15]
A. 82.1

Q. Next entry: OCC1CC(n2cnc3c(SCc4ccccc4F)ncnc32)C(O)C1O (stereo not shown) [Compound 2]
A. 85.8

Q. Next entry: OCC1CC(n2cnc3c(SCc4ccc(Cl)cc4)ncnc32)C(O)C1O (stereo not shown) [Compound 9]
A. 100

Q. Next entry: Cc1ccc(CSc2ncnc3c2ncn3C2CC(CO)C(O)C2O)c(C)c1C (stereo not shown) [Compound 21]
A. 93.2

Q. Next entry: CCc1nc(N)nc(N)c1-c1ccc(Cl)cc1 [Compound 24, Pyrimethamine, reference compound]
A. 108

----------
Test system: uninfected human foreskin fibroblasts
Assay: Host toxicity, MTT assay on uninfected host cells
Settings: infection: None, 25 μM compound
PROPERTY MEASURED: host-toxicity (survival of uninfected host cells)
Express the reported value numerically, then name its unit.

[
  {
    "MOLECULE": "OCC1CC(n2cnc3c(SCc4ccc(F)cc4)ncnc32)C(O)C1O (stereo not drawn)",
    "RESULT": "100%"
  }
]

Q. Value wanted: host-toxicity (survival of uninfected host cells) (uninfected human foreskin fibroblasts) of entry OCC1CC(n2cnc3c(SCc4ccc(OC(F)(F)F)cc4)ncnc32)C(O)C1O (stereo not drawn)
A. 96.7%

Q. Next entry: OCC1CC(n2cnc3c(SCc4ccc(Cl)c(Cl)c4)ncnc32)C(O)C1O (stereo not drawn)
A. 100%

----------
Test system: wild type (RH) strain of T. gondii
Test: Anti-toxoplasmic activity in tissue culture
Format: cell-based, Toxoplasma gondii
Details: wild type (RH) in human fibroblasts, 5 μM compound
PROPERTY MEASURED: percent survival of parasite (%)
Use % as the unit, but write only the number.

Use these answered entries as a reference point.
[
  {
    "COMPOUND": "CCc1nc(N)nc(N)c1-c1ccc(Cl)cc1 [Compound 24, Pyrimethamine, reference compound]",
    "UNIT ABBREVIATION": "%",
    "percent survival of parasite": 98.9
  },
  {
    "COMPOUND": "OCC1CC(n2cnc3c(SCc4cccc(C(F)(F)F)c4)ncnc32)C(O)C1O (centres unmarked) [Compound 6]",
    "UNIT ABBREVIATION": "%",
    "percent survival of parasite": 79.0
  },
  {
    "COMPOUND": "OCC1CC(n2cnc3c(SCc4ccccc4Cl)ncnc32)C(O)C1O (centres unmarked) [Compound 3]",
    "UNIT ABBREVIATION": "%",
    "percent survival of parasite": 79.5
  },
  {
    "COMPOUND": "COC(=O)c1ccc(CSc2ncnc3c2ncn3C2CC(CO)C(O)C2O)cc1 (centres unmarked) [Compound 14]",
    "UNIT ABBREVIATION": "%",
    "percent survival of parasite": 53.9
  },
  {
    "COMPOUND": "CS(=O)(=O)c1ccc(CSc2ncnc3c2ncn3C2CC(CO)C(O)C2O)cc1 (centres unmarked) [Compound 17]",
    "UNIT ABBREVIATION": "%",
    "percent survival of parasite": 66.8
  },
  {
    "COMPOUND": "OCC1CC(n2cnc3c(SCc4ccc(OC(F)(F)F)cc4)ncnc32)C(O)C1O (centres unmarked) [Compound 16]",
    "UNIT ABBREVIATION": "%",
    "percent survival of parasite": 87.3
  }
]

Q. Requested read-out: percent survival of parasite. Entry: OCC1CC(n2cnc3c(SCc4c(F)cccc4Cl)ncnc32)C(O)C1O (centres unmarked) [Compound 20]
A. 56.3

Q. Next entry: COc1ccc(CSc2ncnc3c2ncn3C2CC(CO)C(O)C2O)cc1 (centres unmarked) [Compound 15]
A. 48.3

----------
System: wild type (RH) strain of T. gondii
Assay: Anti-toxoplasmic activity in tissue culture
Type: cell-based, Toxoplasma gondii
Conditions: wild type (RH) in human fibroblasts, 10 μM compound
Just a reminder that ties go to not satisfied: only percent survival of parasite strictly below 20% counts as satisfied.

Use the examples below as a reference point.
[
  {
    "COMPOUND": "Cc1cccc(CSc2ncnc3c2ncn3C2CC(CO)C(O)C2O)c1 (stereo not shown)",
    "ANSWER LABEL": "not satisfied"
  },
  {
    "COMPOUND": "Cc1ccc(CSc2ncnc3c2ncn3C2CC(CO)C(O)C2O)cc1 (stereo not shown)",
    "ANSWER LABEL": "satisfied"
  }
]

Continue with the compound presented below.
Q. Take the compound O=[N+]([O-])c1cccc(CSc2ncnc3c2ncn3C2CC(CO)C(O)C2O)c1 (stereo not shown) and say whether its percent survival of parasite is less than 20%.
A. not satisfied
